The values you see were collected from the kinase profiling compilation of Christmann-Franck et al. (2016).

- Experimental System: CSNK1G2 (human) (UniProt P78368)
- Sequence (P78368 whole entry, looked up): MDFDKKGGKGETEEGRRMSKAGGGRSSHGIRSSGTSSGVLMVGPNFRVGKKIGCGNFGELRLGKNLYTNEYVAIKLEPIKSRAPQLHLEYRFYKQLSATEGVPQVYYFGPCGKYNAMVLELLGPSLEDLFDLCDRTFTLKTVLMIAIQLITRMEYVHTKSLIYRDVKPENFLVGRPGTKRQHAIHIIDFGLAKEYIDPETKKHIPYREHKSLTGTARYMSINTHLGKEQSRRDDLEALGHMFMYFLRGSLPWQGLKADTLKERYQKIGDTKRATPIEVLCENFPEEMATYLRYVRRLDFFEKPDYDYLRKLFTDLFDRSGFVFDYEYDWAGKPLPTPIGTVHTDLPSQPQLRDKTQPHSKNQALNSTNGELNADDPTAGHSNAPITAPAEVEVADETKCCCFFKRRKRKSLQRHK
- Assay Notes: radiometric filter-binding kinase assay, Kinase HotSpot
- Test Parameters: compound 0.5 µM; ATP 10 µM
residual activity overview
Supply the numeric figure in %, leaving out any unit text.

Exercise: Which residual activity is listed for O=C(CCCc1ccc(-c2ccccc2F)cc1)Nc1ccc(O)cc1 ?
Solution: 99.4

Exercise: Now consider Nc1nnc2[nH]c3ccccc3nc1-2 .
Solution: 93.8

Exercise: Now consider O=C1Cc2c([nH]c3ccc(Br)cc23)-c2ccccc2N1 .
Solution: 102

Exercise: Now consider O=C1NC(=O)C(c2c[nH]c3ccccc23)=C1c1c[nH]c2ccccc12 .
Solution: 92

Exercise: Now consider CC(C)[C@H](CO)Nc1nc(Nc2cc(N)cc(Cl)c2)c2ncn(C(C)C)c2n1 .
Solution: 35.2

Exercise: Now consider Nc1nccc(-c2c(-c3ccc(F)cc3)ncn2C2CCNCC2)n1 .
Solution: 119

Exercise: Now consider CN([C@@H](Cc1ccc(OS(=O)(=O)c2cccc3cnccc23)cc1)C(=O)N1CCN(c2ccccc2)CC1)S(=O)(=O)c1cccc2cnccc12 .
Solution: 100

Exercise: Now consider Cc1nc2cc3nc(-c4cccs4)cnc3cc2n1C .
Solution: 103

---

- Experimental System: UniProt:P27448
- Sequence (P27448 whole entry, looked up): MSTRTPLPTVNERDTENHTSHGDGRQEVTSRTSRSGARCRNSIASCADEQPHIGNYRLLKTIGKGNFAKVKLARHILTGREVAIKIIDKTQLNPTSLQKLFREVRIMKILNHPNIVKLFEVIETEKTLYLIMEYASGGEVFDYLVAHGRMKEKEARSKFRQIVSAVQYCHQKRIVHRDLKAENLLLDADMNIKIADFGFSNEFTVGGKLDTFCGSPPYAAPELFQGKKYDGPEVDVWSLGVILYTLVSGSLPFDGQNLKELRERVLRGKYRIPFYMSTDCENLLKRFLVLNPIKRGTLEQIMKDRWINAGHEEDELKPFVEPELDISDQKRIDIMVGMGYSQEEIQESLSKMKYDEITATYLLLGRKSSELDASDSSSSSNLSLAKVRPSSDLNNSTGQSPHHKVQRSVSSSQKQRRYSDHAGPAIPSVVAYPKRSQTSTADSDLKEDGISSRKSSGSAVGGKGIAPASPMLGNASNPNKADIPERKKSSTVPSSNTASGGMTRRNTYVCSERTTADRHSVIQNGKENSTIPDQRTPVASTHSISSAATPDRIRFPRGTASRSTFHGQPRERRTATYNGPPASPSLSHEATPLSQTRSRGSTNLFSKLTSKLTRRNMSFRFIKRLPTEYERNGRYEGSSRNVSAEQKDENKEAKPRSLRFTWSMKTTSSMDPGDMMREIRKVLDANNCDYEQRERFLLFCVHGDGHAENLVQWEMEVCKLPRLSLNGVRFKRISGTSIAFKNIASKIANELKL
- Assay Notes: radiometric filter-binding kinase assay, Kinase HotSpot
- Test Parameters: compound 0.5 µM; ATP 10 µM
Test Readout: residual activity (%)
Supply the numeric figure in %, leaving out any unit text.

Exercise: Which residual activity is listed for O=C1NC(=O)/C(=C\c2ccc3nccnc3c2)S1 ?
Solution: 94.3

Exercise: Now consider Nc1nccc(-c2c(-c3ccc(F)cc3)ncn2C2CCNCC2)n1 .
Solution: 103

Exercise: Now consider Nc1nnc2[nH]c3ccccc3nc1-2 .
Solution: 102

Exercise: Now consider COc1ccc(CNC(=O)Nc2ncc([N+](=O)[O-])s2)cc1 .
Solution: 105

Exercise: Now consider CN(C)C[C@H]1CCn2c(c(C3=C(c4cn(C)c5ccccc45)C(=O)NC3=O)c3ccccc32)C1 .
Solution: 92.4

Exercise: Now consider O=C1Cc2c([nH]c3ccc(Br)cc23)-c2ccccc2N1 .
Solution: 76.8

---

- Experimental System: CAMKK2 (human) (UniProt Q96RR4)
- Sequence (Q96RR4 whole entry, looked up): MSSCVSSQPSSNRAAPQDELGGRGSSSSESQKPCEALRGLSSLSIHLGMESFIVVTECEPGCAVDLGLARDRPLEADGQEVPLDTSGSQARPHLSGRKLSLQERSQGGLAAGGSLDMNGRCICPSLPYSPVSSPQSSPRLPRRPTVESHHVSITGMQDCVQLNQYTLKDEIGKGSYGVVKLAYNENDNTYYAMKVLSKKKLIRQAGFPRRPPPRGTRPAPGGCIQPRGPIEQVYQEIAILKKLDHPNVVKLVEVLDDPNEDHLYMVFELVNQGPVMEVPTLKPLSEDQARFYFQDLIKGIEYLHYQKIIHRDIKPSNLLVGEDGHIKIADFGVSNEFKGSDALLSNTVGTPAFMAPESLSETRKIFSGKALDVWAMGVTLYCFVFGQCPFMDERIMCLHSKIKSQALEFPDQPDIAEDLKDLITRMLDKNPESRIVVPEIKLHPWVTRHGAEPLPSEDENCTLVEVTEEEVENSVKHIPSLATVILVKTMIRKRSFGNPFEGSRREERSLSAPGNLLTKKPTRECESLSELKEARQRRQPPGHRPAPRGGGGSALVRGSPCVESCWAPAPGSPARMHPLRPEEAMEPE
- Assay Notes: radiometric filter-binding kinase assay, Kinase HotSpot
- Test Parameters: compound 0.5 µM; ATP 10 µM
Field 'label' (enum: rule met / rule not met). Set to rule met when residual activity is strictly under 90%; else rule not met.

                              line_notation  answer_label
0       Cn1cnc2cc3c(Nc4cccc(Br)c4)ncnc3cc21  rule not met
1  CN([C@@H](Cc1ccc(OS(=O)(=O)c2cccc3cnccc23)cc1)C(=O)N1CCN(c2ccccc2)CC1)S(=O)(=O)c1cccc2cnccc12      rule met
2  CC(=O)O/N=C1\C(=C2\C(=O)Nc3cc(Br)ccc32)Nc2ccccc21  rule not met

Exercise: In plain terms, does Nc1nnc2[nH]c3ccccc3nc1-2 come in under 90% for residual activity?
Solution: rule not met

Exercise: Now consider Oc1ccc(Nc2nc(-c3ccc(Cl)cc3)cs2)cc1 .
Solution: rule not met

Exercise: Now consider COc1cc2ncnc(N3CCN(C(=O)Nc4ccc(Oc5ccccc5)cc4)CC3)c2cc1OC .
Solution: rule met

Exercise: Now consider CC(C)[C@H](CO)Nc1nc(Nc2cc(N)cc(Cl)c2)c2ncn(C(C)C)c2n1 .
Solution: rule met

Exercise: Now consider O=C(CCCc1ccc(-c2ccccc2F)cc1)Nc1ccc(O)cc1 .
Solution: rule met

Exercise: Now consider CCN(CC)CCCCN1c2ccccc2Oc2ccc(Cl)cc21 .
Solution: rule not met
